# Tested System: T1, P17-His protein (human CD40 antigen) (human, UniProt P25942 21-193, limits assumed)
# T1 construct: also called human CD40 antigen (P17-His)
# T1 sequence (P25942 other isoform, or with tags, fused parts or gaps limits assumed): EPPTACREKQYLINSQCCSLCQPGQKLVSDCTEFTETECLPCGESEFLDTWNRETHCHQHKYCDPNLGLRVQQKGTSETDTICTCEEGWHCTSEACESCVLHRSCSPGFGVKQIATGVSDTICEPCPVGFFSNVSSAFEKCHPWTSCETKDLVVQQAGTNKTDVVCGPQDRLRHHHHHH
# Assay Method Text: BLI (Fortebio Octet RED96), antibody on Protein A sensor, P17-His 5-40 nM
Below, each of the binders is paired with its reported kon value.
Supply the numeric figure in M⁻¹ s⁻¹, leaving out any unit text.

In the examples that follow, each entry is paired with its recorded kon.
C8-2 antibody (antibody, V domains shown) VH: EVQLLESGGGLVRPGGSLRLSCAASGFTFGSYEMNWVRQAPGKGLEWVSYISSSGETTDYADSVKGRFTVSRDNSKNLLYLQMNSLRAEDTAVYYCARDVFFFSPSGDNGAYGMDVWGQGTMVTVSS VL: DIQLTQSPSSLTASVGDRVTITCRSSQGIRSSLAWYQQKPGKPPKLLIYGASSLEGGVPSRFSGSGSGTDFTLTISSLQPEDFATYYCQQLNSFPSTFGQGTKLEIK | 932000
APX005M (antibody, V domains shown) VH: QVQLVESGGGVVQPGRSLRLSCAASGFSFSSTYVCWVRQAPGKGLEWIACIYTGDGTNYSASWAKGRFTISKDSSKNTVYLQMNSLRAEDTAVYFCARPDITYGFAINFWGPGTLVTVSS VL: DIQMTQSPSSLSASVGDRVTIKCQASQSISSRLAWYQQKPGKPPKLLIYRASTLASGVPSRFSGSGSGTDFTLTISSLQPEDVATYYCQCTGYGISWPIGGGTKVEIK | 1.98e+06

Supply reported kon belonging to this binder: C8-3 antibody (antibody, V domains shown) VH: EVQLLESGGGLVRPGGSLRLSCAASGFTAGSYEMNWVRQAPGKGLEWVSYISSSGETTDYADSVKGRFTVSRDNSKNLLYLQMNSLRAEDTAVYYCARDVFFFDSSGDNGAYGMDVWGQGTMVTVSS VL: DIQLTQSPSSLTASVGDRVTITCRSSQGIRSSLAWYQQKPGKPPKLLIYGASSLEVGVPSRFSGSGSGTDFTLTISSLQPEDFATYYCQQLNSFPSTFGQGTKLEIK
2.46e+06
